FYI, the data here is from ChEMBL document CHEMBL5291721.

- subject_of_test: Muscarinic acetylcholine receptor M2 (Homo sapiens, UniProt P08172)
- Sequence (P08172 whole entry): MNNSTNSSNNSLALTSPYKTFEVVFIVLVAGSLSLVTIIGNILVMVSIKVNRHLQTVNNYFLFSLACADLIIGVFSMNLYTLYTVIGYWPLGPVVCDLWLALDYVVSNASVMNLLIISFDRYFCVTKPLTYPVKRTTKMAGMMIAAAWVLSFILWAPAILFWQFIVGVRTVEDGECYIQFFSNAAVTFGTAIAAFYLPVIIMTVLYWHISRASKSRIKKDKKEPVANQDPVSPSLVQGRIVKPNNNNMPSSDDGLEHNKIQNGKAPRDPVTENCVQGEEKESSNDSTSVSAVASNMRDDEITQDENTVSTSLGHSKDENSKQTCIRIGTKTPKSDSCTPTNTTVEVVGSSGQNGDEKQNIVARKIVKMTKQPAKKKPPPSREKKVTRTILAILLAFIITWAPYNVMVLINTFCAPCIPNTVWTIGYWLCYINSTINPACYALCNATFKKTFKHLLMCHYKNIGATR
- Type: functional, cell-based
This section presents compounds with their documented AC50 values.

compound	AC50
Cc1noc(NS(=O)(=O)c2ccc(N)cc2)c1C [SULFISOXAZOLE]	> 10 µM
CCN(CC)CCNC(=O)c1c(C)[nH]c(/C=C2\C(=O)Nc3ccc(F)cc32)c1C [SUNITINIB]	> 30 µM
CC(C)NCC(O)c1ccc(O)c(O)c1 (configuration not stated) [ISOPROTERENOL]	> 10 µM
COc1ccc(CC2c3cc(OC)c(OC)cc3CC[N+]2(C)CCC(=O)OCCCCCOC(=O)CC[N+]2(C)CCc3cc(OC)c(OC)cc3C2Cc2ccc(OC)c(OC)c2)cc1OC (configuration not stated)	> 30 µM
CCCCC1C(=O)N(c2ccccc2)N(c2ccccc2)C1=O [PHENYLBUTAZONE]	> 10 µM
CC(C(=O)O)c1ccc2c(c1)[nH]c1ccc(Cl)cc12 (configuration not stated) [CARPROFEN]	> 10 µM
CC(S)C(=O)NCC(=O)O (configuration not stated) [TIOPRONIN]	> 30 µM
CC(C)[C@H](N)C(=O)OCC(CO)OCn1cnc2c(=O)nc(N)[nH]c21 (some centres not stated) [VALGANCICLOVIR]	> 30 µM
C#C[C@]1(OC(C)=O)CC[C@H]2[C@@H]3CCC4=C/C(=N/O)CC[C@@H]4[C@H]3CC[C@@]21CC [NORGESTIMATE]	> 30 µM
CCN1CCN(Cc2ccc(Nc3ncc(F)c(-c4cc(F)c5nc(C)n(C(C)C)c5c4)n3)nc2)CC1 [ABEMACICLIB]	> 30 µM
C[C@H]1c2cccc(O)c2C(=O)C2=C(O)[C@]3(O)C(=O)C(C(N)=O)=C(O)[C@@H](N(C)C)[C@@H]3[C@@H](O)[C@@H]21 [DOXYCYCLINE]	> 10 µM
CC(=O)O[C@]1(C(C)=O)CC[C@H]2[C@@H]3C=C(C)C4=CC(=O)CC[C@@H]4[C@H]3CC[C@@]21C [NOMEGESTROL ACETATE]	> 30 µM
CCN(CC)C(=O)Nc1ccc(OCC(O)CNC(C)(C)C)c(C(C)=O)c1 (configuration not stated) [CELIPROLOL]	> 30 µM
CCN1CCCC1CNC(=O)c1cc(S(=O)(=O)CC)c(N)cc1OC (configuration not stated) [AMISULPRIDE]	> 30 µM
O=C1C(CC[S+]([O-])c2ccccc2)C(=O)N(c2ccccc2)N1c1ccccc1 (configuration not stated) [SULFINPYRAZONE]	> 10 µM
CCC1(c2ccccc2)CCC(=O)NC1=O (configuration not stated) [GLUTETHIMIDE]	> 10 µM
CN(C)CCCNc1c2ccccc2nc2cccc([N+](=O)[O-])c12 [NITRACRINE]	> 30 µM

* * *

The following compounds have recorded AC50 on Delta-type opioid receptor (Homo sapiens, UniProt P41143).
Sequence (P41143 whole entry): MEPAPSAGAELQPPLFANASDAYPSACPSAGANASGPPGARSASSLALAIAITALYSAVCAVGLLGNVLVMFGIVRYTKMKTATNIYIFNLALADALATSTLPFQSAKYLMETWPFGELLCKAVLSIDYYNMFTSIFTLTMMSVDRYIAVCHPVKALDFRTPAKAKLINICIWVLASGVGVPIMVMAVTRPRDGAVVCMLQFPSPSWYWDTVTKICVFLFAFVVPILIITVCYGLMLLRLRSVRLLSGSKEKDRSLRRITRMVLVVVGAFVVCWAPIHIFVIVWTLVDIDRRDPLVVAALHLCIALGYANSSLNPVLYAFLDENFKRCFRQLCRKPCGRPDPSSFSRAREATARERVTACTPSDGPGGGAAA
assay_metric: AC50 (µM)

compound	assay_metric	measure_unit	limit_qualifier	measurement
CCC(COC(=O)c1cc(OC)c(OC)c(OC)c1)(c1ccccc1)N(C)C (stereo not given)	AC50	µM	=	4
CN1CCN(C2=Nc3ccccc3Oc3ccc(Cl)cc32)CC1	AC50	µM	=	8.51
COc1ccc(CC2c3cc(OC)c(OC)cc3CC[N+]2(C)CCC(=O)OCCCCCOC(=O)CC[N+]2(C)CCc3cc(OC)c(OC)cc3C2Cc2ccc(OC)c(OC)c2)cc1OC (stereo not given)	AC50	µM	>	30
C[C@@H](NCCCc1cccc(C(F)(F)F)c1)c1cccc2ccccc12	AC50	µM	>	30
O=C1C(CC[S+]([O-])c2ccccc2)C(=O)N(c2ccccc2)N1c1ccccc1 (stereo not given)	AC50	µM	>	30
